Reference for the values: PubChem BioAssay AID192

Entries and their T/C values follow.
- Test system: BDF1 mice, B16 melanoma ip, median survival T/C
- experiment: NCI In Vivo Anticancer Drug Screen. Data for tumor model B16 Melanoma (intraperitoneal) in B6D2F1 (BDF1) mice
- measurement_conditions: endpoint: median survival time; dose: 25.0 mg/kg/injection; schedule: Q04DX003 (ip); vehicle: Klucel (hydroxypropylcellulose) (HPC); higher = longer survival
Inconclusive results and toxic doses are left out.
observable: T/C

> print(dat)
                                   molecule  observable  experimental.result
1  CC[N+](CC)(CC)CC.N#C/C([SH2+])=C(/[SH2+])C#N.N#C/C([SH2+])=C(/[SH2+])C#N.[Cu+2]         T/C      89 % of control
2  CC1(C)C(C#N)C(=O)N=C(N)C1C(N)=O (stereo not drawn)         T/C     107 % of control
3  CNC(Cc1ccccc1)C1CCCCC1 (stereo not drawn)         T/C      96 % of control

* * *

- System: BDF1 mice, B16 melanoma ip, median survival T/C
- experiment: NCI In Vivo Anticancer Drug Screen. Data for tumor model B16 Melanoma (intraperitoneal) in B6D2F1 (BDF1) mice
- measurement_conditions: endpoint: median survival time; dose: 400.0 mg/kg/injection; schedule: Q01DX009 (ip); vehicle: Klucel (hydroxypropylcellulose) (HPC); higher = longer survival
Inconclusive results and toxic doses are left out.
observable: T/C

> print(dat)
                                    compound  experimental.result
 1  CC1CCCN(c2ccc([N+](=O)[O-])cc2[N+](=O)[O-])C1 (stereo not drawn)     100 % of control
 2         CC(=O)N(C)N(Cc1ccc(C#N)cc1)C(C)=O      95 % of control
 3  Cc1ccc(N=C(c2ccc([N+](=O)[O-])cc2)c2ccc([N+](=O)[O-])cc2)cc1      91 % of control
 4           COc1ccc(NC(=O)Oc2ccc(OC)cc2)cc1      93 % of control
 5  O=C(O)c1ccccc1C(=O)O.[C-]#[O+].[C-]#[O+].[C-]#[O+].[C-]#[O+].[Rh].[Rh]      94 % of control
 6      CCCCCCCCC(O)CCCCC (stereo not drawn)      98 % of control
 7              COc1cccc(CNc2ccc(C)cc2C)c1OC      96 % of control
 8  O=C1c2ccccc2C(=O)c2c1ccc(C(=O)O)c2-c1ccc2ccccc2c1      96 % of control
 9                         CCCCCCC(=O)CC(C)C      86 % of control
10  COc1ccc(C2CCc3cc4c(cc3/C2=N/OC(C)=O)OCO4)cc1OC (stereo not drawn)     105 % of control
11               Cc1cc(Cl)ccc1NC(=O)c1ccccc1     100 % of control
12              NC(=O)C=C1c2ccccc2-c2ccccc21      86 % of control
13       CN(C)/C=C/C(=O)c1ccccc1[N+](=O)[O-]      93 % of control
14      CCC(=O)c1cc([N+](=O)[O-])ccc1NC(C)=O     109 % of control
15              CCOC(=O)NNC(=O)c1ccccc1N(C)C      92 % of control
16  COc1ccc(-c2c(CC(=O)O)c3cc(OC)ccc3n2Cc2ccc(Cl)cc2)cc1      95 % of control
17  CCCCC(NC(=O)OC(C)(C)C)C(=O)O (stereo not drawn)     100 % of control
18   Cc1ccc(S(=O)(=O)N/N=C\c2cc(Cl)ccc2O)cc1     102 % of control

* * *

- System: BDF1 mice, B16 melanoma ip, median survival T/C
- experiment: NCI In Vivo Anticancer Drug Screen. Data for tumor model B16 Melanoma (intraperitoneal) in B6D2F1 (BDF1) mice
- measurement_conditions: endpoint: median survival time; dose: 50.0 mg/kg/injection; schedule: Q01DX009 (ip); vehicle: saline with Tween-80; higher = longer survival
Toxic doses and inconclusive results are not listed.
observable: T/C

> print(dat)
                                   compound  observable  experimental.result
1  CCOC(=O)C(Cc1ccc(Cl)c(Cl)c1)(Cc1ccc(Cl)c(Cl)c1)C(=O)OCC         T/C      94 % of control
2                Cc1cccc(N2CCN(CCC#N)CC2)c1         T/C     108 % of control
3  CC1=NN(c2ccccc2)C(=O)C1N=Nc1ccccc1S(=O)(=O)O (stereo unspecified)         T/C      90 % of control
4               O=c1[nH]c2ccc(Br)cc2c(=O)o1         T/C      91 % of control
5                           CCCCCC#CC(=O)OC         T/C      86 % of control
6        NC(=O)NC(=O)c1cccc([N+](=O)[O-])c1         T/C     104 % of control
